Test protocol: Selectivity index, ratio of IC50 for rat L6 cells to IC50 for Trypanosoma brucei rhodesiense STIB 900
Type: toxicity, cell-based
Condition details: read-out: Ratio IC50
Exercise: state measured selectivity ratio for each of the compounds provided.
One number for each entry.

Would you please look over these solved cases?
>  <Compound>
COc1ccc(C2=NCCN2)cc1-c1cc2cc(C3=NCCN3)ccc2o1

>  <selectivity ratio>
1140

$$$$
>  <Compound>
COc1cc(C2=NCCN2)ccc1-c1cc2cc(C3=NCCN3)ccc2o1

>  <selectivity ratio>
30

$$$$

Need selectivity ratio for each of these compounds.
1. COc1cc(C(=N)N)ccc1-c1cc2ccc(C(=N)N)cc2o1
2. N=C(N)c1ccc(-c2cc3ccc(C(=N)N)cc3[nH]2)cc1 [DAPI]

1: 36000; 2: 51

Need selectivity ratio for each of these compounds.
1. COc1ccc(C(=N)N)cc1-c1cc2ccc(C(=N)N)cc2o1
2. c1cc(C2=NCCN2)cc(-c2cc3cc(C4=NCCN4)ccc3o2)c1
3. COc1cc(C2=NCCN2)cc2cc(-c3ccc(C4=NCCN4)cc3)oc12

1. 11600
2. 435
3. 160

Need selectivity ratio for each of these compounds.
1. Oc1cc(C2=NCCN2)ccc1-c1cc2cc(C3=NCCN3)ccc2o1
2. N=C(N)c1ccc(-c2cc3cc(C(=N)N)ccc3o2)c(O)c1
3. N=C(N)c1ccc(-c2cc3cc(C(=N)N)cc(O)c3o2)cc1
4. COc1cc(C(=N)NC(C)C)ccc1-c1cc2cc(C(=N)NC(C)C)ccc2o1
5. c1ccc2[nH]c(-c3ccc(-c4cc5cc(C6=NCCN6)ccc5o4)cc3)nc2c1
6. c1cc(-c2cc3ccc(C4=NCCN4)cc3o2)ccc1C1=NCCN1
7. COc1cc(C(=N)N)cc2cc(-c3ccc(C(=N)N)cc3)oc12
8. N=C(N)c1cccc(-c2cc3cc(C(=N)N)ccc3o2)c1

1. 18800
2. 16600
3. 61300
4. 1330
5. 260
6. 14
7. 5120
8. 883

Need selectivity ratio for each of these compounds.
1. COc1cc(C2=NCCN2)ccc1-c1cc2ccc(C3=NCCN3)cc2o1
2. COc1ccc(C2=NCCN2)cc1-c1cc2ccc(C3=NCCN3)cc2o1
3. N=C(N)c1ccc(O)c(-c2cc3ccc(C(=N)N)cc3o2)c1
4. COc1cc(C(=N)N)ccc1-c1cc2cc(C(=N)N)ccc2o1
5. c1ccc2[nH]c(-c3ccc(-c4cc5cc(-c6nc7ccccc7[nH]6)ccc5o4)cc3)nc2c1
6. COc1ccc(C(=N)N)cc1-c1cc2cc(C(=N)N)ccc2o1
7. c1c[nH]c(-c2ccc(-c3cc4cc(-c5ncc[nH]5)ccc4o3)cc2)n1
8. c1ccc2[nH]c(-c3ccc4oc(-c5ccc(C6=NCCN6)cc5)cc4c3)nc2c1

1. 90
2. 653
3. 5660
4. 52300
5. 27
6. 89500
7. 5
8. 50
